Readings of growth for the listed compounds
# System: SNB-19 CNS
# experimentalDetails: NCI-60 one-dose screen, 48 h (100 = growth as untreated, 0 = no growth, -100 = all killed)
# experimentalConditions: 10 µM unless noted
Compounds without any hit were thinned out: in the full panel of roughly 83,000, 20% have a hit.
Response body: numeric value in %, unit text excluded.

# example entries with known answers
>  <compound>
CCOC(=O)C(=CNc1cnc(Nc2ccc(N3CCOCC3)cc2)nc1Oc1ccc(OC)cc1)C(=O)OCC

>  <tgt>
SNB-19 CNS

>  <readingUnit>
%

>  <observed>
41.7

$$$$
>  <compound>
Cc1cc(Nc2ccc(C(=O)N3CCCC3)cc2)nc(NCCCNc2ccnc3cc(Cl)ccc23)n1

>  <tgt>
SNB-19 CNS

>  <readingUnit>
%

>  <observed>
84.1

$$$$
>  <compound>
COc1cc(Cl)c(C)cc1NC(=O)c1cc2ccccc2cc1O

>  <tgt>
SNB-19 CNS

>  <readingUnit>
%

>  <observed>
23.1

$$$$
>  <compound>
N#CC1CCc2c(c(-c3ccc4nc(N)sc4c3)nc3ccc4[nH]ncc4c23)C1 (stereo unspecified)

>  <tgt>
SNB-19 CNS

>  <readingUnit>
%

>  <observed>
67.7

$$$$

So for CC1=C2[C@@H](CC1)[C@]1(C)O[C@@](c3ccccc3)(C[C@H]1OC(=O)CO)[C@H]2OC(=O)/C=C/c1ccccc1 , the logged growth turned out to be 96.1

So for N#Cc1c(-c2ccccc2)nc(SCC(O)CN2CCOCC2)nc1N1CCOCC1 (stereo unspecified) , the logged growth turned out to be 65.8

So for CCCn1cnc2c(c1=N)C(c1ccc(F)cc1)c1sc3c(F)cccc3c1O2 (stereo unspecified) , the logged growth turned out to be 35.4

So for COc1ccc(N2CCC(=S)NC2=S)cc1 , the logged growth turned out to be 94.5

So for O=C(Cc1ccc(NC(=O)c2cccc(Cl)c2)cc1)NCc1ccccc1 , the logged growth turned out to be 47.5

So for Nc1nc(N)c2c(n1)NC(c1ccc(Cl)cc1)C1CCc3ccccc3C1=N2 (stereo unspecified) , the logged growth turned out to be 76.1

So for NS(=O)(=O)c1ccc(-c2cc(-c3nnc(SCC(=O)Nc4ccc(C(=O)/C=C/c5ccc(Cl)cc5)cc4)n3-c3ccccc3)c3ccccc3n2)cc1 , the logged growth turned out to be 86.8
